- TARGET_DESC: T1, recombinant human domain 1-3His6 of the cation-independent mannose-6-phosphate receptor (human, UniProt P11717 41-467)
- T1 construct: Biotinylated (NHS-PEG4-biotin) for BLI; Glycosylated; also called hDom1-3His6; hCI-M6PRD1-D3
- TEST_NAME: BLI exp 2, dissoc pH 7
Assignment: determine reported log10 of kon for the given binders.
Lab note - kon converted to log10 from values in M⁻¹ s⁻¹.

Solved cases (5 shown):
anti-CI-M6PR VHH8 (VHH, His6-tagged (Pichia pastoris)) VHH: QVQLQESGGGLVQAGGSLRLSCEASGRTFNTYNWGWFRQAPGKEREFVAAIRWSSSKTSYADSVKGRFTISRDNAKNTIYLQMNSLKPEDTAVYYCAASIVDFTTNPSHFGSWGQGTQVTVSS ... 5.61
anti-CI-M6PR VHH1 (VHH, His6-tagged; made in Pichia pastoris, later also in E. coli WK6) VHH: QVQLQESGGGLVQPGGSLRLSCVASGFTFDRYWMNWLRQIPGKEIEWVSTINTGGTGTYYDDSVKGRFSISRDDAKNTLYLTMNSLKTEDTAVYYCARGATYYRGNSAIRGQGTQVTVSS ... 6.18
anti-CI-M6PR VHH7 (VHH, His6-tagged (Pichia pastoris)) VHH: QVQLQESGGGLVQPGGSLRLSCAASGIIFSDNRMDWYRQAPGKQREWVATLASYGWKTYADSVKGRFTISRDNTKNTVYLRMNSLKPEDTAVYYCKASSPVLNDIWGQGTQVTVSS ... 5.11
anti-CI-M6PR VHH5 (VHH, His6-tagged; made in Pichia pastoris, later also in E. coli WK6) VHH: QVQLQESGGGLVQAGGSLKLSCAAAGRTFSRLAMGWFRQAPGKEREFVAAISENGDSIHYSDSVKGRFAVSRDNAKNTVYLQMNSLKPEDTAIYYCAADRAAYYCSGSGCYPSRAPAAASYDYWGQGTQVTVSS ... 6.18
anti-CI-M6PR VHH3 (VHH, His6-tagged; made in Pichia pastoris) VHH: QVQLQESGGGLVQPGGSLRLSCAAFGLNFKNFDMIWFRQAPGEERDIVAAISSSSSTIWYEDSVKGRFTISRDNAKNTVYLQMNSLKPEDTAVYYCAAALTSWRRPDYWGQGTQVTVSS ... 4.72

// for each binder below, give its log10 of kon
1. anti-CI-M6PR VHH6 (VHH, His6-tagged; made in E. coli) VHH: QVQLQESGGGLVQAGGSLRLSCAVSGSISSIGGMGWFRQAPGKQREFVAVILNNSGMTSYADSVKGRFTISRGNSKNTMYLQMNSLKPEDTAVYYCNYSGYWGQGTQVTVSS
2. anti-CI-M6PR VHH11 (VHH, His6-tagged; made in Pichia pastoris) VHH: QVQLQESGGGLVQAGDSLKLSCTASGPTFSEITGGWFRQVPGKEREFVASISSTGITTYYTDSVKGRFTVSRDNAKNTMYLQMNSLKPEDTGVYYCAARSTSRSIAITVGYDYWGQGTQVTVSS
3. anti-CI-M6PR VHH4 (VHH, His6-tagged; made in Pichia pastoris) VHH: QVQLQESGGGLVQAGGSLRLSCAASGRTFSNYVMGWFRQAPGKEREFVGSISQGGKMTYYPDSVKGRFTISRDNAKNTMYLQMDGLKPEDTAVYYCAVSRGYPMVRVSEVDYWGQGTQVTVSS

## Result
1: 5.59; 2: 5.29; 3: 5.50
